Source of measurements: patent US9725442B2

- TARGET OF ASSAY: Human DP1 receptor (Homo sapiens (Human))
- Sequence (Q13258 whole entry): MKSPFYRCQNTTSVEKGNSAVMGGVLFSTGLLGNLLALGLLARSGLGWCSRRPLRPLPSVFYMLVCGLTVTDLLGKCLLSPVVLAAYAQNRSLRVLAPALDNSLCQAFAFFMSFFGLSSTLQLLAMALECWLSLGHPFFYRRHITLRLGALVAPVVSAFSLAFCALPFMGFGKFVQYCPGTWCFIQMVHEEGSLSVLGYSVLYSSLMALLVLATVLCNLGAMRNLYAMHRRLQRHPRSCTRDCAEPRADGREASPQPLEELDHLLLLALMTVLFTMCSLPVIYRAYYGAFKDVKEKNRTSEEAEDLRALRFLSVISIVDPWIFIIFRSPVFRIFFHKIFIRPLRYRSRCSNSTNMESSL
- MEASUREMENT PROTOCOL: Human DP1 inhibitory activity in DP1-expressing cell (PGD2-induced cAMP)
- Assay type: cell-based
- RECORDED CONDITIONS: category of cAMP IC50, human DP1 receptor expressing Jurkut cell
ENDPOINT: IC50

CCOc1ccc(S(=O)(=O)N2C[C@@H](C)[C@@H](n3nc(CC(=O)O)c4ccccc43)C2)c(CCCOC)c1 [Compound I-183] :: 0.1 to 5 µM
COc1ccc(S(=O)(=O)N2C[C@@H](C)[C@@H](n3nc(CC(=O)O)c4ccc(C)cc43)C2)s1 [Compound I-180] :: 0.1 to 5 µM
CC(C)Oc1ccc(S(=O)(=O)N2C[C@H](n3nc(CC(=O)O)c4ccc(F)cc43)C[C@@H]2COCC(O)CO)cc1 (stereo partly drawn) [Compound I-281] :: 0.1 to 5 µM
CC(C)Oc1ccc(S(=O)(=O)N2CC[C@H](n3nc(CC(=O)O)c4ccc(F)cc43)[C@H](C)C2)cc1 [Compound I-75] :: < 0.1 µM
CC(C)Oc1ccc(S(=O)(=O)N2C[C@H](n3nc(CC(=O)O)c4ccc(F)cc43)C[C@@H]2Cn2cccn2)cc1 [Compound I-21] :: < 0.1 µM

Q) Which value of IC50 has been reported for CC(C)Oc1ccc(S(=O)(=O)N2C[C@H](O)[C@@H](n3nc(CC(=O)O)c4ccc(F)cc43)C2)cc1 [Compound I-25] in the records?
A) 0.1 to 5 µM

Q) Then this molecule: CC(C)Oc1ccc(S(=O)(=O)N2C[C@@H](CF)[C@@H](n3nc(CC(=O)O)c4ccc(F)cc43)C2)cc1 [Compound I-42]
A) 0.1 to 5 µM

Q) Then this molecule: CCOc1ncc(S(=O)(=O)N2C[C@@H](C)[C@@H](n3nc(CC(=O)O)c4ccc(F)cc43)C2)s1 [Compound I-166]
A) < 0.1 µM

Q) Then this molecule: C[C@@H]1CN(S(=O)(=O)c2ccc(OC(F)(F)F)cc2)C[C@@H]1n1nc(CC(=O)O)c2ccc(F)cc21 [Compound I-120]
A) < 0.1 µM

Q) Then this molecule: CCOc1ccc(S(=O)(=O)N2C[C@@H](C)[C@@H](n3nc(CC(=O)O)c4ccccc43)C2)s1 [Compound I-177]
A) < 0.1 µM

Q) Then this molecule: CC(C)Oc1ccc(S(=O)(=O)N2C[C@@H](C)[C@@H](n3nc(Cc4nnn[nH]4)c4ccc(F)cc43)C2)cc1 [Compound I-157]
A) 0.1 to 5 µM

Q) Then this molecule: CC(C)Oc1ccc(S(=O)(=O)N2C[C@H](n3nc(CC(=O)O)c4ccc(F)cc43)CC2c2cccnc2)cc1 (stereo partly drawn) [Compound I-345]
A) 0.1 to 5 µM
